- System: NCI-H23 cells
- test: Sulforhodamine B (SRB) growth inhibition assay
- Assay type: cell-based
- condition.label: Homo sapiens, 72 hours treatment
As shown below, each of these compounds has a reported IC50 value.
Report only the number, with the unit µM understood.

CC(=O)O[C@@]12CO[C@@H]1C[C@H](O)[C@@]1(C)C(=O)[C@H](O)C3=C(C)[C@@H](OC(=O)[C@H](O)[C@@H](NC(=O)OC(C)(C)C)c4ccccc4)C[C@@](O)([C@@H](OC(=O)c4ccccc4)[C@H]21)C3(C)C [Docetaxel, reference compound] : 0.00164

Shift focus to the following entry.
Fill in: NCI-H23 cells IC50 for O=CC[C@@H](O)[C@H](O)[C@H](O)CO = 1860
